FYI, the data here is from patent US5543415A.

For each of the compounds below, state its MLD (minimum lethal dose).
- Tested on: ddY-strain male mice
- ASSAY_NAME: Acute Toxicity Test (minimum lethal dose, oral)
- Assay type: in vivo
- ASSAY_CONTEXT: seven days after administration

Worked cases, answers included:
{"columns": ["COMPOUND_STRING", "MEASURED_ON", "VAL"],
 "data": [
  ["CCn1c(=O)c2c(nc(/C=C/c3ccc(OCCCCN=[N+]=[N-])cc3)n2C)n(CC)c1=O", "ddY-strain male mice", "> 100 mg/kg"],
  ["CCCn1c(=O)c2[nH]c(/C=C/c3ccc4c(c3)OCCO4)nc2n(CCC)c1=O", "ddY-strain male mice", "> 300 mg/kg"],
  ["CCn1c(=O)c2[nH]c(/C=C/c3cc(C(F)(F)F)cc(C(F)(F)F)c3)nc2n(CC)c1=O", "ddY-strain male mice", "> 100 mg/kg"],
  ["COc1ccc(/C=C/c2nc3c(c(=O)n(C)c(=O)n3C)n2C)c(C)c1C", "ddY-strain male mice", "> 100 mg/kg"],
  ["CCCn1c(=O)c2nc(/C=C/c3cccc(Cl)c3)[nH]c2n(CCC)c1=O", "ddY-strain male mice", "> 100 mg/kg"]
]}

Would you be so kind as to report MLD (minimum lethal dose) for each listed record?
1. CCn1c(=O)c2c(nc(/C=C/c3ccc(C(F)(F)F)cc3)n2C)n(CC)c1=O
2. CCOC(=O)COc1ccc(/C=C/c2nc3c(c(=O)n(CC)c(=O)n3CC)n2C)cc1
3. CCCn1c(=O)c2c(nc(/C=C/c3cc(OC)cc(OC)c3)n2C)n(CCC)c1=O

Result:
1: > 300 mg/kg; 2: > 100 mg/kg; 3: > 300 mg/kg

---

- Test system: clonidine-induced aggressive behavior
- ASSAY_NAME: Effect on Clonidine-Induced Aggressive Behavior (number of biting attacks during 30 minutes)
- Assay type: in vivo, male ddY mice
- ASSAY_CONTEXT: Mus musculus; 10 mg/kg, po; read-out: Number of the Attacks of Test Compound-Treated Group/Number of the Attacks of Control Group
QUANTITY: response vs control in vivo at 10 mg/kg (%)
One number for each entry, in %.

Worked cases, answers included:
{"columns": ["COMPOUND", "MEASURED_ON", "response vs control in vivo at 10 mg/kg / %"],
 "data": [
  ["CCn1c(=O)c2c(nc(/C=C/c3ccc(OC)c(C)c3C)n2C)n(CC)c1=O [Compound 82]", "clonidine-induced aggressive behavior", 800],
  ["CCn1c(=O)c2c(nc(/C=C/c3cccc(F)c3C)n2C)n(CC)c1=O [Compound 181]", "clonidine-induced aggressive behavior", 800],
  ["CCn1c(=O)c2c(nc(/C=C/c3ccc(OC)c(C)c3)n2C)n(CC)c1=O [Compound 175]", "clonidine-induced aggressive behavior", 790],
  ["CCCn1c(=O)c2c(nc(/C=C/c3ccccc3)n2C)n(CCC)c1=O [Compound 3]", "clonidine-induced aggressive behavior", 340],
  ["CCn1c(=O)c2c(nc(/C=C/c3ccccc3F)n2C)n(CC)c1=O [Compound 168]", "clonidine-induced aggressive behavior", 710]
]}

Would you be so kind as to report response vs control in vivo at 10 mg/kg for each listed record?
1. CCn1c(=O)c2c(nc(/C=C/c3cccc(Br)c3)n2C)n(CC)c1=O [Compound 162]
2. CCn1c(=O)c2c(nc(/C=C/c3ccc(OCc4ccccc4)cc3)n2C)n(CC)c1=O [Compound 185]
3. CCCn1c(=O)c2c(nc(/C=C/c3ccc4c(c3)OCCO4)n2C)n(CCC)c1=O [Compound 18]
4. CCn1c(=O)c2c(nc(/C=C/c3ccc(C)cc3)n2C)n(CC)c1=O [Compound 152]
5. CCn1c(=O)c2c(nc(/C=C/c3ccc(OC)c(F)c3)n2C)n(CC)c1=O [Compound 173]

Result:
1. 850
2. 620
3. 640
4. 670
5. 620

---

- Tested on: ddY-strain male mice
- ASSAY_NAME: Acute Toxicity Test (minimum lethal dose, oral)
- Assay type: in vivo
- ASSAY_CONTEXT: seven days after administration
QUANTITY: MLD (minimum lethal dose)

Worked cases, answers included:
{"columns": ["COMPOUND", "MLD (minimum lethal dose)"],
 "data": [
  ["CCCCOc1ccc(/C=C/c2nc3c(c(=O)n(CCC)c(=O)n3CCC)n2C)cc1", "> 300 mg/kg"],
  ["CCOc1ccc(/C=C/c2nc3c(c(=O)n(CC)c(=O)n3CC)n2C)cc1", "> 300 mg/kg"],
  ["CCCn1c(=O)c2c(nc(/C=C/c3cc(OC)c(OC)c(OC)c3)n2C)n(CCC)c1=O", "> 300 mg/kg"],
  ["CCCn1c(=O)c2c(nc(/C=C/c3ccc(OC)c(C)c3C)n2C)n(CCC)c1=O", "> 300 mg/kg"]
]}

Would you be so kind as to report MLD (minimum lethal dose) for each listed record?
1. CCn1c(=O)c2[nH]c(/C=C/c3cc(OC)cc(OC)c3)nc2n(CC)c1=O
2. CCCn1c(=O)c2c(nc(/C=C/c3ccc(OCC)cc3)n2C)n(CCC)c1=O

Result:
> 100 mg/kg
> 300 mg/kg

---

- System: ddY-strain male mice
- ASSAY_NAME: Acute Toxicity Test (minimum lethal dose, oral)
- Assay type: in vivo
- ASSAY_CONTEXT: seven days after administration
QUANTITY: MLD (minimum lethal dose)

Worked cases, answers included:
{"columns": ["MOLECULE", "MLD (minimum lethal dose)"],
 "data": [
  ["CCn1c(=O)c2[nH]c(/C=C/c3ccc(F)c(Cl)c3)nc2n(CC)c1=O", "> 100 mg/kg"],
  ["CCn1c(=O)c2c(nc(/C=C/c3ccc(OC)c(OC)c3OC)n2C)n(CC)c1=O", "> 300 mg/kg"],
  ["CCn1c(=O)c2c(nc(/C=C/c3ccc(C)cc3)n2C)n(CC)c1=O", "> 100 mg/kg"]
]}

Would you be so kind as to report MLD (minimum lethal dose) for each listed record?
1. CCn1c(=O)c2c(nc(/C=C/c3ccc4c(c3)OCCO4)n2C)n(CC)c1=O
2. C=CCn1c(=O)c2[nH]c(/C=C/c3ccc(OC)c(OC)c3)nc2n(CC=C)c1=O
3. CCCn1c(=O)c2c(nc(/C=C/c3ccc(O)c(O)c3)n2C)n(CCC)c1=O
4. CCCn1c(=O)c2c(nc(/C=C/c3cccc(F)c3)n2C)n(CCC)c1=O
5. CCn1c(=O)c2[nH]c(/C(C)=C/c3ccccc3)nc2n(CC)c1=O
6. CCn1c(=O)c2c(nc(/C=C/c3cccc(OC)c3OC)n2C)n(CC)c1=O

Result:
1. > 300 mg/kg
2. > 100 mg/kg
3. > 100 mg/kg
4. > 300 mg/kg
5. > 100 mg/kg
6. > 300 mg/kg

Would you be so kind as to report MLD (minimum lethal dose) for each listed record?
1. CCCn1c(=O)c2[nH]c(/C=C/c3ccc(OC)c(Br)c3)nc2n(CCC)c1=O
2. CCCn1c(=O)c2c(nc(/C=C/c3ccc(OCC)c(OCC)c3)n2C)n(CCC)c1=O
3. CCn1c(=O)c2[nH]c(/C=C/c3cccc(Cl)c3)nc2n(CC)c1=O

Result:
> 100 mg/kg
> 100 mg/kg
> 100 mg/kg

Would you be so kind as to report MLD (minimum lethal dose) for each listed record?
1. CCn1c(=O)c2c(nc(/C=C/c3cc(C)ccc3C)n2C)n(CC)c1=O
2. COc1ccc(/C=C/c2nc3c(c(=O)n(C)c(=O)n3C)n2C)c(OC)c1OC [Compound 92, (E)-8-(2,3,4-Trimethoxystyryl)caffeine]

Result:
["> 300 mg/kg", "> 300 mg/kg"]

Would you be so kind as to report MLD (minimum lethal dose) for each listed record?
1. CCCn1c(=O)c2[nH]c(/C=C/c3cc(OC)c(OC)cc3Br)nc2n(CCC)c1=O
2. CCCn1c(=O)c2c(nc(/C=C/c3cc(Br)c(OC)c(OC)c3)n2C)n(CCC)c1=O
3. CCCn1c(=O)c2c(nc(/C=C/c3ccc(OC)c(O)c3)n2C)n(CCC)c1=O
4. CCn1c(=O)c2[nH]c(/C=C/c3ccc(F)c(F)c3)nc2n(CC)c1=O
5. Cn1c(=O)c2[nH]c(/C=C/c3ccc4c(c3)OCO4)nc2n(C)c1=O

Result:
> 300 mg/kg
> 100 mg/kg
> 100 mg/kg
> 300 mg/kg
> 300 mg/kg

Would you be so kind as to report MLD (minimum lethal dose) for each listed record?
1. CCCn1c(=O)c2c(nc(/C=C/c3ccc(OC)c4ccccc34)n2C)n(CCC)c1=O
2. C=CCn1c(=O)c2c(nc(/C=C/c3ccc(OC)c(OC)c3)n2C)n(CC=C)c1=O
3. CCCn1c(=O)c2c(nc(/C=C/c3ccc4c(c3)OCO4)n2C)n(CCC)c1=O
4. CCn1c(=O)c2c(nc(/C=C/c3cccc(C(F)(F)F)c3)n2C)n(CC)c1=O
5. CCn1c(=O)c2[nH]c(/C=C/c3cccc(C(F)(F)F)c3)nc2n(CC)c1=O
6. CCn1c(=O)c2c(nc(/C=C/c3cc(F)cc(F)c3)n2C)n(CC)c1=O

Result:
1: > 300 mg/kg; 2: > 100 mg/kg; 3: > 300 mg/kg; 4: > 100 mg/kg; 5: > 100 mg/kg; 6: > 100 mg/kg

Would you be so kind as to report MLD (minimum lethal dose) for each listed record?
1. CCn1c(=O)c2c(nc(/C=C/c3ccc(-c4ccccc4)cc3)n2C)n(CC)c1=O
2. CCn1c(=O)c2[nH]c(/C=C/c3ccc(OC)cc3OC)nc2n(CC)c1=O
3. CCCn1c(=O)c2c(nc(/C=C/c3ccc(OC)c(OC)c3OC)n2C)n(CCC)c1=O
4. COc1cc(C)c(/C=C/c2nc3c([nH]2)c(=O)n(C)c(=O)n3C)cc1C
5. CCCn1c(=O)c2c(nc(/C=C/c3cc(C)c(OC)cc3C)n2C)n(CCC)c1=O
6. CCn1c(=O)c2[nH]c(/C=C/c3ccc(OC)c(C)c3OC)nc2n(CC)c1=O

Result:
1. > 100 mg/kg
2. > 100 mg/kg
3. > 300 mg/kg
4. > 100 mg/kg
5. > 300 mg/kg
6. > 300 mg/kg

Would you be so kind as to report MLD (minimum lethal dose) for each listed record?
1. CCn1c(=O)c2[nH]c(/C=C/c3cccc(OC)c3OC)nc2n(CC)c1=O
2. CCn1c(=O)c2c(nc(/C=C/c3cccc(OC)c3)n2C)n(CC)c1=O

Result:
1. > 300 mg/kg
2. > 300 mg/kg
